Would you kindly list inhibition for each of these molecules?
Assay: ATP-evoked calcium signal inhibitors, parental CHO, primary screen, counter-screen for OX1R antagonist project, cell-based, fluorescence, Fluo-8 calcium dye (AID 463079);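 further: 0% = ATP-challenged DMSO wells and 100% = DMSO wells without ATP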
Settings: parental CHO-K1, ATP-induced calcium, Fluo-8 fluorescence; at 5.6 µM; stronger effect = higher value
In all, about 330,000 compounds went through this assay and about 2,000 (0.61%) were called active. Many of the other results were omitted from the sample, so actives are more common in it than they were.
Answers are plain numbers, in %.

Below are worked cases with known answers.
1) Cc1c(NC(=O)CSc2nnc(-c3cccnc3)n2N)c(=O)n(-c2ccccc2)n1C ... -5.93
2) CN(c1ccccc1)c1ccc(/C=c2\s/c(=C(/C#N)C(=O)C(C)(C)C)n(Cc3ccco3)c2=O)cc1 ... 47.5
3) CCOC(=O)C1=C(c2ccccc2)N=C2SCC(=O)N2C1c1ccc(O)c(OC)c1 (stereo not given) ... -27.1
4) Cc1c(NC(=O)CSc2cccc3cccnc23)c(=O)n(-c2ccccc2)n1C ... 25.1
5) C=C(Br)CN1CCN(CC(=C)Br)CC1 ... 4.29

Could you report inhibition for every entry in the following list?
1. O=S(=O)(c1cccc(Cn2nnc(-c3ccc(F)cc3)n2)c1)N1CCOCC1
2. Cc1cccc(NC(=O)C2CC(=O)OC23CCCC3)c1 (stereo not given)

[41.7, -13.3]
